Hey, just so you know, these numbers are from ChEMBL document CHEMBL4477264.

# target_desc: Quinolone resistance protein NorA (Staphylococcus aureus) (UniProt P0A0J7)
# assay_protocol: Inhibition of NorA efflux pump overexpressed in Staphylococcus aureus 1199B assessed as fold reduction in ciprofloxacin MIC at 12.5 ug/ml measured after 24 hrs by broth checkerboard method
quantity_kind: fold change (FC)
Answer field: number only, no words.

# annotated cases, reported fold change (FC) shown
CCC(/C=C/C(=O)N1CCCCC1)=C\c1ccc2c(c1)OCO2
4
CCC(/C=C/C(=O)O)=C\c1ccc2c(c1)OCO2
0
CCC(/C=C/C(=O)NC1(CC(=O)OC)CCCCC1)=C\c1ccc2c(c1)OCO2
2
COC(=O)CC1(NC(=O)/C=C/C=C/c2ccc3c(c2)OCO3)CCC(C(C)(C)C)CC1 (stereo not given)
0

Provide measured fold change (FC) value, entry: CCC(/C=C/C(=O)N1CCC[C@@H]1C(=O)OC)=C\c1ccc2c(c1)OCO2
16

Provide measured fold change (FC) value, entry: CCC1CCC(CC(=O)OC)(NC(=O)/C=C/C=C/c2ccc3c(c2)OCO3)CC1 (stereo not given)
0

Provide measured fold change (FC) value, entry: CCC(/C=C/C(=O)NC1(CC(=O)OC)CCC(CC)CC1)=C\c1ccc2c(c1)OCO2 (stereo not given)
0

Provide measured fold change (FC) value, entry: CCC(/C=C/C(=O)NCC1(CC(=O)OC)CCCCC1)=C\c1ccc2c(c1)OCO2
2

Provide measured fold change (FC) value, entry: COC(=O)CC1(CNC(=O)/C=C/C=C/c2ccc3c(c2)OCO3)CCCCC1
4

Provide measured fold change (FC) value, entry: CCC(/C=C/C(=O)N[C@@H](CC(C)C)C(=O)OC)=C\c1ccc2c(c1)OCO2
0
